Entry source: patent US20090149482A1

# MEASURED_ON: hPEPT1 (Homo sapiens, UniProt P46059)
# Construct: endogenous in cells; host or cells: Caco-2 (human colon carcinoma, ATCC)
# Sequence (P46059 1-708): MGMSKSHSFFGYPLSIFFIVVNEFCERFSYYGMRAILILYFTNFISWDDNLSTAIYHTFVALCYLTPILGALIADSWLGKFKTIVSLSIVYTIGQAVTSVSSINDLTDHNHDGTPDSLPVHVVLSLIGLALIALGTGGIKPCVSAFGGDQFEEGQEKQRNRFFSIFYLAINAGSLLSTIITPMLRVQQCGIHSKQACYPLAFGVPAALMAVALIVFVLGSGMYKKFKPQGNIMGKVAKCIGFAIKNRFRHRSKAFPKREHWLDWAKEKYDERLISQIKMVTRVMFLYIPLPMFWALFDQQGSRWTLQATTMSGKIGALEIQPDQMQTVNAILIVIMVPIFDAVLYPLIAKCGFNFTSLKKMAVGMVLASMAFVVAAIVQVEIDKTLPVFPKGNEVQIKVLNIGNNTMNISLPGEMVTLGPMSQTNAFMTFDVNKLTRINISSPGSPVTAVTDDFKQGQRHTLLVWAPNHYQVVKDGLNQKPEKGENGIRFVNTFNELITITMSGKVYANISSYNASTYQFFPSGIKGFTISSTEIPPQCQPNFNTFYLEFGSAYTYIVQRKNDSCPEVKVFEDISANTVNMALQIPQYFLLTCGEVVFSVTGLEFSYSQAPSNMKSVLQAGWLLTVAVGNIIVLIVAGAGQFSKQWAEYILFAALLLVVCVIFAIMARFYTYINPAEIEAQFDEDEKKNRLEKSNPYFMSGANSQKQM
# METHOD: [3H] Glycylsarcosine uptake and its inhibition in Caco-2 cells (affinity towards peptide transporter)
# Format: cell-based
# PARTICULARS: Dose Response (Cheng and Prusoff from IC50); read-out: Ki
Where a SMILES comes first, the peptide text is derived from it. [ ]: non-standard residue; d: D form. Sar = CNCC(=O)O
EXPERIMENTAL_READOUT: Ki (µM)
# value in µM; strip the unit string

Query :: I'd like to know its Ki. The molecule in question is CN(CC(=O)O)C(=O)CN [Gly-Sar, glycylsarcosine, reference compound] (H-Gly-[Sar]-OH)
Result :: 2490

---

# System: human fibroblast foreskin cells (HFF)
EXPERIMENTAL_READOUT: CC50

Query :: Give CC50 (human fibroblast foreskin cells (HFF)) of the following molecule: CC(C)C(NC(=O)CN)C(=O)OCCOCn1cnc2c(=O)[nH]c(N)nc21 (stereo not drawn) [Gly-Val-ACV, Glycine-Valine-Acyclovir]
Result :: > 160 µM

---

# METHOD: in vitro
# PARTICULARS: human, Caco-2, pH 7.4
EXPERIMENTAL_READOUT: Papp (×10⁻⁶ cm/s)
# value in ×10⁻⁶ cm/s; strip the unit string

Query :: I'd like to know its Papp. The compound in question is CC(C)[C@H](N)C(=O)OCCOCn1cnc2c(=O)[nH]c(N)nc21
Result :: 5.67

---

# Tested on: human fibroblast foreskin cells (HFF)
# PARTICULARS: VZV column
EXPERIMENTAL_READOUT: CC50

Query :: I'd like to know its CC50. The compound in question is CC(C)C(N)C(=O)NC(C(=O)OCCOCn1cnc2c(=O)[nH]c(N)nc21)C(C)C (stereo not shown)
Result :: > 186 µM

---

# METHOD: in vitro
# PARTICULARS: human, CC50, VZV column
EXPERIMENTAL_READOUT: CC50

Query :: I'd like to know its CC50. The compound in question is CC(C)[C@H](N)C(=O)OCCOCn1cnc2c(=O)[nH]c(N)nc21 [Val-ACV, L-Valine-acyclovir]
Result :: > 100 µM

---

# System: human fibroblast foreskin cells (HFF)
# PARTICULARS: HCMV column
EXPERIMENTAL_READOUT: CC50

Query :: Give CC50 (human fibroblast foreskin cells (HFF)) of the following molecule: CC(C)C(N)C(=O)NC(C(=O)OCCOCn1cnc2c(=O)[nH]c(N)nc21)C(C)C (stereo not drawn) [Val-Val-ACV, Val-Valacyclovir]
Result :: > 186 µM

---

# METHOD: in vitro
# PARTICULARS: human, CC50 (concentration required to inhibit cell proliferation by 50%), HSV-1
EXPERIMENTAL_READOUT: CC50

Query :: I'd like to know its CC50. The compound in question is CC(C)[C@H](N)C(=O)OCCOCn1cnc2c(=O)[nH]c(N)nc21 [Val-ACV, L-Valine-acyclovir]
Result :: > 277 µM

---

# METHOD: in vitro
# PARTICULARS: human, Caco-2, pH 7.4
EXPERIMENTAL_READOUT: half-life (h)
# value in h; strip the unit string

Query :: I'd like to know its half-life. The compound in question is CC(C)[C@H](N)C(=O)OCCOCn1cnc2c(=O)[nH]c(N)nc21
Result :: 2.06

---

# System: EBV
# METHOD: In vitro antiviral screening, VCA Elisa
# Type: cell-based, epstein-barr virus
# PARTICULARS: EBV, VCA Elisa
EXPERIMENTAL_READOUT: EC50 (µM)
# value in µM; strip the unit string

Query :: I'd like to know its EC50. The compound in question is CC(C)C(N)C(=O)NC(C(=O)OCCOCn1cnc2c(=O)[nH]c(N)nc21)C(C)C (stereo not shown)
Result :: 93.1

---

# PARTICULARS: New Zealand albino, rabbit
EXPERIMENTAL_READOUT: Papp (×10⁻⁶ cm/s)
# value in ×10⁻⁶ cm/s; strip the unit string

Query :: I'd like to know its Papp. The compound in question is Nc1nc2c(ncn2COCCO)c(=O)[nH]1 [ACV]
Result :: 4.24

---

# Tested on: human fibroblast foreskin cells (HFF)
# PARTICULARS: HSV-2 column
EXPERIMENTAL_READOUT: CC50

Query :: I'd like to know its CC50. The molecule in question is CC(C)C(N)C(=O)NC(C(=O)OCCOCn1cnc2c(=O)[nH]c(N)nc21)C(C)C (stereo not shown)
Result :: > 186 µM

---

# MEASURED_ON: hPEPT1 (Homo sapiens)
# Construct: endogenous in cells; host or cells: Caco-2 (human colon carcinoma, ATCC)
# METHOD: [3H] Glycylsarcosine uptake and its inhibition in Caco-2 cells (affinity towards peptide transporter)
# Type: cell-based
# PARTICULARS: read-out: IC50 of inhibition of [3H] Gly-Sar uptake
EXPERIMENTAL_READOUT: pIC50
Notebook: values listed as pIC50 are -log10 of the concentration (mol/L).

Query :: I'd like to know its pIC50. The compound in question is CC(C)C(N)C(=O)NC(C(=O)OCCOCn1cnc2c(=O)[nH]c(N)nc21)C(C)C (stereo not shown)
Result :: 2.46

---

# MEASURED_ON: hPEPT1 (Homo sapiens)
# Construct: endogenous in cells; host or cells: Caco-2 (human colon carcinoma, ATCC)
# METHOD: [3H] Glycylsarcosine uptake and its inhibition in Caco-2 cells (affinity towards peptide transporter)
# Type: cell-based
# PARTICULARS: Gly-Sar with drug (10 mM), Lineweaver-Burk
Some molecules, each annotated with its measured Vmax of Gly-Sar uptake in presence of the drug.
# value in µmol/min/mg; strip the unit string

Worked examples follow.
CC(C)C(NC(=O)C(N)Cc1ccc(O)cc1)C(=O)OCCOCn1cnc2c(=O)[nH]c(N)nc21 (stereo not shown): 0.091
Nc1nc2c(ncn2COCCOC(=O)CNC(=O)C(N)Cc2ccc(O)cc2)c(=O)[nH]1 (stereo not shown): 0.087
NCC(=O)NC(Cc1ccc(O)cc1)C(=O)OCCOCn1cnc2c(=O)[nH]c(N)nc21 (stereo not shown): 0.094

Proceed to the following item.
Query :: I'd like to know its Vmax of Gly-Sar uptake in presence of the drug. The molecule in question is CC(C)C(NC(=O)CN)C(=O)OCCOCn1cnc2c(=O)[nH]c(N)nc21 (stereo not shown)
Result :: 0.095

---

# Tested on: VZV
# METHOD: In vitro antiviral screening, CPE inhibition in HFF cells
# Format: cell-based, varicella zoster virus
# PARTICULARS: Human alphaherpesvirus 3, HFF; VZV, CPE Inhibition
EXPERIMENTAL_READOUT: EC50

Query :: I'd like to know its EC50. The compound in question is CC(C)[C@H](N)C(=O)OCCOCn1cnc2c(=O)[nH]c(N)nc21
Result :: < 80 nM

---

# MEASURED_ON: hPEPT1 (Homo sapiens)
# Construct: endogenous in cells; host or cells: Caco-2 (human colon carcinoma, ATCC)
# Sequence (P46059 1-708): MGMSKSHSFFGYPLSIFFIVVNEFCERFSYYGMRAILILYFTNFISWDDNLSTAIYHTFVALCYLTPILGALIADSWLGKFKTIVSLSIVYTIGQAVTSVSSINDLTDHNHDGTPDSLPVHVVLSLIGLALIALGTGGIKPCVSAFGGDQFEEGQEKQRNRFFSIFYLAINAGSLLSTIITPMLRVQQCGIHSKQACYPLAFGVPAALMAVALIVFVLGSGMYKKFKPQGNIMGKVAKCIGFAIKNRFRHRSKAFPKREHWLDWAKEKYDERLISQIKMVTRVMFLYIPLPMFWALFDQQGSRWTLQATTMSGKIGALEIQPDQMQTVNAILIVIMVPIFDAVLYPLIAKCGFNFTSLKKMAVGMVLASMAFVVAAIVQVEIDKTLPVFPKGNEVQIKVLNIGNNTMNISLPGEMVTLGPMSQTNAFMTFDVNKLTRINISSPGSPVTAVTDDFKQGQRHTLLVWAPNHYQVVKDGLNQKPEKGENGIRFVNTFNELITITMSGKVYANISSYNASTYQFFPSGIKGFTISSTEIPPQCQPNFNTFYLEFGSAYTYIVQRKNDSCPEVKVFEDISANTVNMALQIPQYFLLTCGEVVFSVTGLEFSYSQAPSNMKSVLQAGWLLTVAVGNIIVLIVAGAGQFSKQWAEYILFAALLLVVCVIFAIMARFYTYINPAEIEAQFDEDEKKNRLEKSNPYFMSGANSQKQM
# METHOD: [3H] Glycylsarcosine uptake and its inhibition in Caco-2 cells (affinity towards peptide transporter)
# Assay type: cell-based
EXPERIMENTAL_READOUT: pKi
Notebook: values listed as pKi are -log10 of the concentration (mol/L).

Query :: I'd like to know its pKi. The molecule in question is CC(C)[C@H](N)C(=O)OCCOCn1cnc2c(=O)[nH]c(N)nc21
Result :: 2.85
